Tested on: 186277-243-T-J2-PDC complex spheroid viability
Assay method text: Anticancer human tumor 186277-243-T-J2-PDC patient-derived colon adenocarcinoma cell line growth inhibition [GQUAD]
Applied conditions: second compound 1 µM; first compound 3.16 µM; hits give low values
# viability, T/C listing for each entry below

A selection of reference data follows.
| Compound | viability, T/C |
| --- | --- |
| COc1ncnc(C2CC2)c1-c1ncc2cnn(Cc3ccc(-c4nc(C(F)(F)F)cn4C(C)C)cc3)c2n1 + Cc1[nH]c2ccc(F)cc2c1-c1nc2c3cccnc3c3ncccc3c2[nH]1 | 116% |
| O=C(NO)c1cnc(N2CCN(S(=O)(=O)c3ccc4ccccc4c3)CC2)nc1 + CN(C)c1ccc(Nc2c3ccc(NC(=O)CCN4CCCC4)cc3nc3cc(NC(=O)CCN4CCCC4)ccc23)cc1 | 0.13% |

Would you kindly look at the next entry?
Data request: Quick one: viability, T/C for COc1cccc2c1C(=O)c1c(O)c3c(c(O)c1C2=O)CC(O)(C(=O)CO)CC3OC1CC(N)C(O)C(C)O1 (stereo not drawn) + Cc1cnc(CNC(=O)c2c(=O)c3ccc(N4CCCN(C)CC4)nc3n3c2sc2ccccc23)cn1 ?
Data returned: 0.12%

----------
Test system: 186277-243-T-J2-PDC complex spheroid viability
Assay method text: Anticancer human tumor 186277-243-T-J2-PDC cell line growth inhibition [GQUAD]; active = viability on the fitted dose curve at most 10% of control; inactive = the rest;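 also: spheroids exposed to drugs for 7 days; 100% = DMSO vehicle control viability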
Applied conditions: second compound 1 µM; first compound 1 µM
Can you answer with just one of these options? active, inactive

Use these answered entries as a reference point.
| Compound | Category |
| --- | --- |
| O=c1[nH]cc(F)c(=O)[nH]1 + CN(C)c1ccc(Nc2c3ccc(NC(=O)CCN4CCCC4)cc3nc3cc(NC(=O)CCN4CCCC4)ccc23)cc1 | inactive |
| O=C(NO)c1cnc(N2CCN(S(=O)(=O)c3ccc4ccccc4c3)CC2)nc1 + CN(C)c1ccc(Nc2c3ccc(NC(=O)CCN4CCCC4)cc3nc3cc(NC(=O)CCN4CCCC4)ccc23)cc1 | active |
| CC(=O)O[C@H]1C(=O)[C@@]2(C)[C@H]([C@H](OC(=O)c3ccccc3)[C@]3(O)C[C@H](OC(=O)[C@H](O)[C@@H](NC(=O)c4ccccc4)c4ccccc4)C(C)=C1C3(C)C)[C@]1(OC(C)=O)CO[C@@H]1C[C@@H]2O + CN(C)c1ccc(Nc2c3ccc(NC(=O)CCN4CCCC4)cc3nc3cc(NC(=O)CCN4CCCC4)ccc23)cc1 | active |
| CC1COCCN1c1cc(C2(S(C)(=N)=O)CC2)nc(-c2ccnc3[nH]ccc23)n1 (stereo not given) + Cc1cnc(CNC(=O)c2c(=O)c3ccc(N4CCCN(C)CC4)nc3n3c2sc2ccccc23)cn1 | inactive |
| Nc1ccn(C2OC(CO)C(O)C2(F)F)c(=O)n1 (stereo not given) + Cc1cnc(CNC(=O)c2c(=O)c3ccc(N4CCCN(C)CC4)nc3n3c2sc2ccccc23)cn1 | inactive |
| CCCS(=O)(=O)Nc1ccc(F)c(C(=O)c2c[nH]c3ncc(-c4ccc(Cl)cc4)cc23)c1F + Cc1cnc(CNC(=O)c2c(=O)c3ccc(N4CCCN(C)CC4)nc3n3c2sc2ccccc23)cn1 | inactive |
| COc1ccc([C@@H](O)c2cc(-c3ncnc4cc(N5CCOCC5)ccc34)c(F)cc2Cl)nn1 + Cc1[nH]c2ccc(F)cc2c1-c1nc2c3cccnc3c3ncccc3c2[nH]1 | inactive |
| COc1ccc([C@@H](O)c2cc(-c3ncnc4cc(N5CCOCC5)ccc34)c(F)cc2Cl)nn1 + CN(C)c1ccc(Nc2c3ccc(NC(=O)CCN4CCCC4)cc3nc3cc(NC(=O)CCN4CCCC4)ccc23)cc1 | inactive |

Data request: In this assay, the call recorded for O=C(NO)c1cnc(N2CCN(S(=O)(=O)c3ccc4ccccc4c3)CC2)nc1 + Cc1cnc(CNC(=O)c2c(=O)c3ccc(N4CCCN(C)CC4)nc3n3c2sc2ccccc23)cn1 was what?
Data returned: active

Data request: In this assay, the call recorded for CC(C)(O)C1CCC(Nc2ccc3ncc(-c4cccc(C(F)(F)F)c4)n3n2)CC1 (stereo not given) + Cc1cnc(CNC(=O)c2c(=O)c3ccc(N4CCCN(C)CC4)nc3n3c2sc2ccccc23)cn1 was what?
Data returned: inactive
